assay: Selectivity index, ratio of CC50 for human Huh7.5 cells to EC50 for Hepatitis C virus infected in human HuH7.5 cells; assay type: toxicity, cell-based, Huh-7; conditions: read-out: Ratio CC50/EC50
For each entry below, report its selectivity ratio value.

O=C(O)C[C@@H]1C(=O)O[C@H]2[C@@H]3OC(=O)c4cc(O)c(O)c(O)c4-c4c(cc(O)c(O)c4O)C(=O)OC[C@H]2O[C@@H](OC(=O)c2cc(O)c(O)c(O)c2)[C@@H]3OC(=O)c2cc(O)c(O)c3c2[C@H]1[C@H](O)C(=O)O3 = 4.7
O=C(O[C@@H]1O[C@@H]2COC(=O)c3cc(O)c(O)c(O)c3-c3c(cc(O)c(O)c3O)C(=O)O[C@H]([C@H]1O)[C@@H]2O)c1cc(O)c(O)c(O)c1 = 7.1
O=C1O[C@H]2[C@@H]3OC(=O)c4cc(O)c(O)c(O)c4-c4c(cc(O)c(O)c4O)C(=O)OC[C@H]2O[C@@H](OC(=O)c2cc(O)c(O)c(O)c2)[C@@H]3OC(=O)c2cc(O)c(O)c3c2[C@@H]2C1=CC(=O)[C@](O)(O3)C2(O)O = 1.9

Continue with the compound presented below.
Entry under test: O=C(O[C@@H]1O[C@@H]2COC(=O)c3cc(O)c(O)c4oc5c(O)c(O)cc(c5c34)C(=O)O[C@@H]3[C@H]1OC(=O)c1cc(O)c(O)c4c1[C@@H]1[C@@]5(C[C@]6(O)OC[C@@H](O)[C@@H]6O[C@@H]5C(O)(O)C(O)(O)[C@]1(O)O4)C(=O)O[C@@H]32)c1cc(O)c(O)c(O)c1 . Its selectivity ratio was 4.5

* * *

test: Inhibition of Hepatitic C virus NS3/4A protease by FRET assay; set-up: species or system Hepacivirus hominis; settings: read-out: IC50
Measured Attribute: pIC50
Answers are plain numbers, as −log10 of the molar value.

COc1ccc2c(O[C@@H]3C[C@H]4C(=O)N[C@]5(C(=O)O)C[C@H]5/C=C\CCCCC[C@H](NC(=O)OC5CCCC5)C(=O)N4C3)cc(-c3csc(NC(C)C)n3)nc2c1 = 5.81

Continue with the compound presented below.
Entry under test: O=C(O[C@@H]1O[C@@H]2COC(=O)c3cc(O)c(O)c4oc5c(O)c(O)cc(c5c34)C(=O)O[C@@H]3[C@H]1OC(=O)c1cc(O)c(O)c4c1[C@@H]1[C@@]5(C[C@]6(O)OC[C@@H](O)[C@@H]6O[C@@H]5C(O)(O)C(O)(O)[C@]1(O)O4)C(=O)O[C@@H]32)c1cc(O)c(O)c(O)c1 . Its pIC50 was 5.16

* * *

assay: Inhibition of Hepatitic C virus NS3/4A protease by FRET assay; parameters: species or system Hepacivirus hominis; conditions: read-out: IC50
Measured Attribute: pIC50
Answers are plain numbers, as −log10 of the molar value.

Solved entries (count: 2):
O=C1O[C@H]2[C@@H]3OC(=O)c4cc(O)c(O)c(O)c4-c4c(cc(O)c(O)c4O)C(=O)OC[C@H]2O[C@@H](OC(=O)c2cc(O)c(O)c(O)c2)[C@@H]3OC(=O)c2cc(O)c(O)c3c2[C@@H]2C1=CC(=O)[C@](O)(O3)C2(O)O [GERANIIN] = 5.05
O=C(O[C@@H]1O[C@@H]2COC(=O)c3cc(O)c(O)c(O)c3-c3c(cc(O)c(O)c3O)C(=O)O[C@H]([C@H]1O)[C@@H]2O)c1cc(O)c(O)c(O)c1 [CORILAGIN] = 5.46

Continue with the compound presented below.
Entry under test: O=C(O)C[C@@H]1C(=O)O[C@H]2[C@@H]3OC(=O)c4cc(O)c(O)c(O)c4-c4c(cc(O)c(O)c4O)C(=O)OC[C@H]2O[C@@H](OC(=O)c2cc(O)c(O)c(O)c2)[C@@H]3OC(=O)c2cc(O)c(O)c3c2[C@H]1[C@H](O)C(=O)O3 [CHEBULAGIC ACID] . Its pIC50 was 5.04
